Measured on: KIT wild-type (Homo sapiens (Human))
Sequence (P10721 26-976, species assumed): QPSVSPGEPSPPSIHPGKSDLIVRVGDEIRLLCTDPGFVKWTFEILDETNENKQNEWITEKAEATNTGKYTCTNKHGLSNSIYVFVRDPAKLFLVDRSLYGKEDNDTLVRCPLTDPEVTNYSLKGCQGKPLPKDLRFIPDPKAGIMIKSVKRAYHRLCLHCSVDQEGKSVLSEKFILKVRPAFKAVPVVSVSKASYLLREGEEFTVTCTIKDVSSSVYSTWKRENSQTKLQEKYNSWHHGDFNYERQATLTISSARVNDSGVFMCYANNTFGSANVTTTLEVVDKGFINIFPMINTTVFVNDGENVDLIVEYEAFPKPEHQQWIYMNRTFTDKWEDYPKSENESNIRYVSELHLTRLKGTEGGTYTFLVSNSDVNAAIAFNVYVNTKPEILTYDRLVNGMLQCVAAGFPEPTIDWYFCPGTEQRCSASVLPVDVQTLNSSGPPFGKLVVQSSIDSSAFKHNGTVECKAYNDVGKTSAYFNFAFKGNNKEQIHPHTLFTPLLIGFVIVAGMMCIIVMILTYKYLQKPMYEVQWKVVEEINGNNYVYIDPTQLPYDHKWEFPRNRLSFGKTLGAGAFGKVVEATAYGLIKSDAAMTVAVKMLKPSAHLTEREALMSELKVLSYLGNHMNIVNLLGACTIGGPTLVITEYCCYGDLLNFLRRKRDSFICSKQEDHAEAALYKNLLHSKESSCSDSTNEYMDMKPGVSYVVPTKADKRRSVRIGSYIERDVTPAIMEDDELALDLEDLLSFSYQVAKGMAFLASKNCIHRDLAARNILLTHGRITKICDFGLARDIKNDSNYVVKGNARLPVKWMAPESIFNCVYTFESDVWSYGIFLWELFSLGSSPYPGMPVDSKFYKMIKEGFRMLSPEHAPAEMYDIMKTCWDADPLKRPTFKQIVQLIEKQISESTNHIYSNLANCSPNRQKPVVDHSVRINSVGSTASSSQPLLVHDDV
Protocol summary: Cell-based proliferation assay on BaF3 model, KIT wild-type
pIC50: −log10 of the molar value.

[
  {
    "Compound": "Cc1ccnc(Nc2cccc(-c3cnc(N4CCNC(=O)C45CC5)o3)c2)n1 [Compound 001]",
    "pIC50": 5.00
  }
]

###

Protocol summary: WST-1 cell survival/proliferation assay on rat cardiomyocytes
Type: cell-based
Stated conditions: rat neonatal cardiac myocytes; Rat Cardiac Myocyte, 1 μM
Recorded endpoint: viability change vs untreated control at 48 h, 1 µM (%)

[
  {
    "Mol": "Cc1ccnc(Nc2cccc(-c3cnc(N4CCNC(=O)C45CC5)o3)c2)n1",
    "Test value": -2
  }
]
